assay comment: qHTS assay for cell viability of HEK293 cells (AID 743288); further: on the % scale 0 is the no-effect control and ±100 the full control effect; nearly all actives have a fitted effect of over 50% in size
stated conditions: ATP luminescence (CellTiter-Glo), 18 h, hits give low values
Results filed as inconclusive are left out.
quantity name: max response (%)
Express your answer in %, writing the number without its unit.

>>> print(df.to_string())
                              compound  quantity_name  measured_result
0  Nc1ccc([N+](=O)[O-])cc1[N+](=O)[O-]   max response             2.24

Find the recorded max response belonging to C=CC(=O)OCC(C)C and report it. 2.29

Item under review: CCN(CC)N=O . Reported max response? 1.5

----------
target or system: Muscarinic acetylcholine receptor M1 (Rattus norvegicus)
assay comment: qHTS Assay for Antagonists of Acetylcholine Muscarinic M1 Receptor: Measurement of IP-One Response (AID 944); further: nearly all actives have a fitted effect of over 75% in size
stated conditions: CHO-M1 cells, IP-One HTRF, antagonist mode; series mostly up to 46.1 µM
Inconclusive results are not listed. The source made the active and inactive calls. The call rests on the fitted dose curve; in most records, active means well fitted inhibition curve with a large enough effect; inconclusive means small, poorly fitted or top-dose-only effect; inactive means no such curve, though single readings can be large or run the other way.
A correct response names exactly one class from active, inactive

Below, 3 molecules whose answers are already recorded.
                               smiles_input                          target_or_system  class_label
0  CO[C@@H]1CC=C2CCN3CCC4=C(CC(=O)OC4)[C@]23C1  Muscarinic acetylcholine receptor M1 (Rattus norvegicus)     inactive
1                  COc1cc([C@@H](O)CN)ccc1O  Muscarinic acetylcholine receptor M1 (Rattus norvegicus)     inactive
2                     C[Se]C[C@@H](N)C(=O)O  Muscarinic acetylcholine receptor M1 (Rattus norvegicus)     inactive

Would you kindly look at the next entry?
Hey, what did the test say about C[C@@]12CC[C@H]3[C@@H](CC[C@@H]4C[C@H](O)CC[C@]43C)[C@H]1CC[C@H]2O ? inactive

----------
activity change % (negative = inhibition) reference
target or system: Thyroid hormone receptor beta (Homo sapiens) (UniProt P10828)
Sequence (P10828 whole entry, looked up): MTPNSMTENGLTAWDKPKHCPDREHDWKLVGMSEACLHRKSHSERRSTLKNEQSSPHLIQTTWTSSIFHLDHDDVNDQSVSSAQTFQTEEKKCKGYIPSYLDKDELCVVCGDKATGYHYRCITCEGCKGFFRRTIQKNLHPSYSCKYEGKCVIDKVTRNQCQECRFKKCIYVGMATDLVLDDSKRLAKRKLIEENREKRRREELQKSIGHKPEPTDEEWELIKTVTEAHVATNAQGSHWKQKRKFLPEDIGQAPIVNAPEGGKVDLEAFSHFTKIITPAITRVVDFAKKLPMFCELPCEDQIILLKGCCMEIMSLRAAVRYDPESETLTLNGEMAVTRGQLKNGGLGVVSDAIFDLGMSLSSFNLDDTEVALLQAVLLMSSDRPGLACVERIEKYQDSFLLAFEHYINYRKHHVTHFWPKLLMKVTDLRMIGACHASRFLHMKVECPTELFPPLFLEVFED
assay comment: qHTS assay for small molecule antagonists of thyroid hormone receptor beta signaling (AID 588547);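 further: cells stimulated with 0.4 nM T3 agonist during compound exposure; on the % scale 0 is the no-effect control and ±100 the full control effect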
stated conditions: TR-UAS-bla HEK293, beta-lactamase ratio, antagonist mode, 18 h
Inconclusive results are not listed.
Number in %, nothing else.

In [3]: df
Out[3]:
     smiles_input                          target_or_system  measured_result
0  CCN(N=O)C(N)=O  Thyroid hormone receptor beta (Homo sapiens) (UniProt P10828)             18.5

Hello, I am looking for reported activity change % (negative = inhibition) with Thyroid hormone receptor beta (Homo sapiens) (UniProt P10828) for O=C(Cc1ccccc1)OCc1ccccc1 . Could you help? 0.158

Could you share what activity change % (negative = inhibition) was measured for Cc1ccc(N)cc1C , tested on Thyroid hormone receptor beta (Homo sapiens) (UniProt P10828)? 9.98

Item ClCc1ccccc1 with Thyroid hormone receptor beta (Homo sapiens) (UniProt P10828) - activity change % (negative = inhibition)? 2.64

Provide the documented activity change % (negative = inhibition) with Thyroid hormone receptor beta (Homo sapiens) (UniProt P10828) as the system for Clc1cccc(Cl)c1 13.8

----------
target or system: Cytochrome P450 1A2 (Homo sapiens) (UniProt P05177)
Sequence (P05177 whole entry, looked up): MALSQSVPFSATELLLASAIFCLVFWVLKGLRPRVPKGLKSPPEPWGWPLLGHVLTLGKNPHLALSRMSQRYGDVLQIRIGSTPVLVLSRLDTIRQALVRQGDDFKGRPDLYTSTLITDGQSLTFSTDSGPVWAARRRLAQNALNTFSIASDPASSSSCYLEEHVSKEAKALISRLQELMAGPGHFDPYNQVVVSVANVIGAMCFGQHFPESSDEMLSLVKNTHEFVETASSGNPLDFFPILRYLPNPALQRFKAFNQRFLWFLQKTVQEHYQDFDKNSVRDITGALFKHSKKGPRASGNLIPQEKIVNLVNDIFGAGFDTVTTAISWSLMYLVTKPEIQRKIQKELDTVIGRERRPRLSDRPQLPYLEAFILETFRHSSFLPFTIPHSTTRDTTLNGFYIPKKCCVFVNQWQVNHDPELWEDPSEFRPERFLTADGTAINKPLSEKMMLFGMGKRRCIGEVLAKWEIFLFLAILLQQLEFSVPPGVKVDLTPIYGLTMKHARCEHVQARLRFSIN
assay comment: p450-cyp1a2 (AID 410)
stated conditions: recombinant CYP1A2, luciferin-ME demethylation, luminescence; series mostly up to 11.4 µM
Inconclusive results are not listed. Active and inactive are the calls of the source. The call rests on the fitted dose curve.
Allowed answers: y = active, n = inactive

>>> print(df.to_string())
                               smiles_input  class_label
0     C1C[C@@H]2CN(CCCN3CCOCC3)[C@@H](C1)O2            n
1  O=C(O)[C@H]1[C@H](C(=O)O)[C@H]2CC[C@@H]1O2            n
2                     C[Se]C[C@@H](N)C(=O)O            n

Tell me the assay call for O=C1N[C@@]2(CN3CCC2CC3)C(=O)N1CN(Cc1ccccc1)c1ccccc1 please. y

Give the logged outcome of this assay for the following compound: CC(C)CC(=O)C[C@H](O)C(Cl)(Cl)Cl n

Outcome logged for CN1CCN(c2ccc([N+](=O)[O-])c3[nH]o[n+](=O)c23)CC1 in this assay: y

Identify the outcome logged in this assay for the compound shown: CN1C[C@@H](CS(=O)(=O)N(C)C)C[C@H]2c3cccc4c3c(cn4C)C[C@@H]21 y

I would be grateful if you could indicate the recorded call for CCN(CC)CCn1ncc2c(N)ncnc21 . n

----------
assay comment: AP1 Signaling Pathway (AID 357);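 further: ME-180 reporter cells stimulated with EGF at its EC50 level; on the % scale 0 is the no-effect control and ±100 the full control effect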
stated conditions: ME-180 (cervical carcinoma) AP-1-bla reporter, EGF-induced, beta-lactamase ratio, 5 h; at 7.69 µM (top of the series) unless noted
Inconclusive results are not listed. Calls of active or inactive are those of the source. Calls come from the whole dose curve; as a rule, active = well fitted curve in either direction with a large enough effect (not every such curve was filed as active); inconclusive = small, poorly fitted or top-dose-only effect, or another doubt; inactive = flat fitted curve, though single readings scatter.
Listing of recorded activity change, negative = inhibition by entry.

Answered cases to consult:
>>> df
                               smiles_input                           quantity_name              measured_result
0                    NC[C@@H](O)CSP(=O)(O)O  activity change, negative = inhibition            -1.23% (inactive)
1           CN(C)CCC(C#N)(c1ccccc1)c1ccccc1  activity change, negative = inhibition             6.93% (inactive)
2  COc1ccc2c(c1)[C@]13CCCC[C@@H]1[C@H](C2)NCC3  activity change, negative = inhibition  15.6% [at 38 µM] (inactive)
3              NC[C@@H](Cc1ccccc1)P(=O)(O)O  activity change, negative = inhibition             11.5% (inactive)
4  CC(C)=C[C@H]1[C@@H](C(=O)OCc2cc3c(cc2Cl)OCO3)C1(C)C  activity change, negative = inhibition            -2.25% (inactive)

Look up activity change, negative = inhibition for this compound: O.O.[NH-]C1(C(=O)O)CCCC1.[NH-]C1(C(=O)O)CCCC1.[Ni+2] 8.54% (inactive)

Bench note: what activity change, negative = inhibition did c1ccc(C[N+]23CN4CN(CN(C4)C2)C3)cc1 show? 0.854% (inactive)

Please report the recorded activity change, negative = inhibition for CC(=O)OCC1=C(C(=O)[O-])N2C(=O)[C@@H](NC(=O)CCC[C@@H](N)C(=O)[O-])[C@@H]2SC1.[Zn+2] . 13.1% [at 38 µM] (inactive)

Looking for the measured activity change, negative = inhibition of NCCc1ccc(S(=O)(=O)O)cc1[N+](=O)[O-] , can you help? -10.6% (inactive)

----------
assay comment: qHTS assay for small molecule activators of the nuclear factor-kappa B (NF-kB) signaling pathway (AID 651749); further: % of control where 0% means no effect
stated conditions: NF-kB-bla ME-180 cells, beta-lactamase FRET ratio, 16 h; hits give high values
Records with an inconclusive call do not appear. Active and inactive are the calls of the source. Calls come from the whole dose curve; as a rule, active = well fitted activation curve with a large enough effect in the signal ratio; inconclusive = small, poorly fitted or top-dose-only effect, or a change in a side signal; inactive = flat fitted curve, though single readings scatter; the % refers to the signal ratio.
Reported activation is given for each of the following compounds.

Please review the entries below; each comes with its answer.
>>> df
                               smiles_input  quantity_name                       measured_result
0                         O=Cc1ccc(Cl)cc1Cl     activation                      1.15% (inactive)
1                                Cl/C=C/CCl     activation                     0.574% (inactive)
2           Brc1ccc(Oc2ccc(Br)cc2Br)c(Br)c1     activation                     0.581% (inactive)
3                          CCCC[N+](=O)[O-]     activation                    -0.304% (inactive)
4          CCOP(=S)(OCC)Oc1nc(Cl)c(Cl)cc1Cl     activation  -1.28% (inactive) [middle of 4 runs]
5  COc1c(C(C)(C)C)cc([N+](=O)[O-])c(C)c1[N+](=O)[O-]     activation                    -0.667% (inactive)
6                            Clc1cccc(Cl)c1     activation                     -1.17% (inactive)
7                 Clc1ccc(C(Cl)(Cl)Cl)cc1Cl     activation                     -1.35% (inactive)
8                 O=[N+]([O-])/C=C/c1ccccc1     activation                    -0.835% (inactive)
9                              C=CC(=O)OCCO     activation                      0.11% (inactive)

Sample CN(C)C(=O)Cl — what was its activation? -0.0384% (inactive)

// lookup activation for O=[N+]([O-])c1ccccc1CCl 0.905% (inactive)

May I ask what activation has been recorded for Oc1c(Cl)cccc1Cl ? -0.406% (inactive)

Requested field: activation. Item: O=[N+]([O-])CCO -0.859% (inactive)

For the compound Cl/C=C\Cl , what activation is on record? 0.0953% (inactive)
